# system: T1, tetanus toxoid (Clostridium tetani, production strain …, UniProt P04958, biotin (biotinylated antigen))
# T1 construct: also called TT
# T1 sequence (P04958 whole entry): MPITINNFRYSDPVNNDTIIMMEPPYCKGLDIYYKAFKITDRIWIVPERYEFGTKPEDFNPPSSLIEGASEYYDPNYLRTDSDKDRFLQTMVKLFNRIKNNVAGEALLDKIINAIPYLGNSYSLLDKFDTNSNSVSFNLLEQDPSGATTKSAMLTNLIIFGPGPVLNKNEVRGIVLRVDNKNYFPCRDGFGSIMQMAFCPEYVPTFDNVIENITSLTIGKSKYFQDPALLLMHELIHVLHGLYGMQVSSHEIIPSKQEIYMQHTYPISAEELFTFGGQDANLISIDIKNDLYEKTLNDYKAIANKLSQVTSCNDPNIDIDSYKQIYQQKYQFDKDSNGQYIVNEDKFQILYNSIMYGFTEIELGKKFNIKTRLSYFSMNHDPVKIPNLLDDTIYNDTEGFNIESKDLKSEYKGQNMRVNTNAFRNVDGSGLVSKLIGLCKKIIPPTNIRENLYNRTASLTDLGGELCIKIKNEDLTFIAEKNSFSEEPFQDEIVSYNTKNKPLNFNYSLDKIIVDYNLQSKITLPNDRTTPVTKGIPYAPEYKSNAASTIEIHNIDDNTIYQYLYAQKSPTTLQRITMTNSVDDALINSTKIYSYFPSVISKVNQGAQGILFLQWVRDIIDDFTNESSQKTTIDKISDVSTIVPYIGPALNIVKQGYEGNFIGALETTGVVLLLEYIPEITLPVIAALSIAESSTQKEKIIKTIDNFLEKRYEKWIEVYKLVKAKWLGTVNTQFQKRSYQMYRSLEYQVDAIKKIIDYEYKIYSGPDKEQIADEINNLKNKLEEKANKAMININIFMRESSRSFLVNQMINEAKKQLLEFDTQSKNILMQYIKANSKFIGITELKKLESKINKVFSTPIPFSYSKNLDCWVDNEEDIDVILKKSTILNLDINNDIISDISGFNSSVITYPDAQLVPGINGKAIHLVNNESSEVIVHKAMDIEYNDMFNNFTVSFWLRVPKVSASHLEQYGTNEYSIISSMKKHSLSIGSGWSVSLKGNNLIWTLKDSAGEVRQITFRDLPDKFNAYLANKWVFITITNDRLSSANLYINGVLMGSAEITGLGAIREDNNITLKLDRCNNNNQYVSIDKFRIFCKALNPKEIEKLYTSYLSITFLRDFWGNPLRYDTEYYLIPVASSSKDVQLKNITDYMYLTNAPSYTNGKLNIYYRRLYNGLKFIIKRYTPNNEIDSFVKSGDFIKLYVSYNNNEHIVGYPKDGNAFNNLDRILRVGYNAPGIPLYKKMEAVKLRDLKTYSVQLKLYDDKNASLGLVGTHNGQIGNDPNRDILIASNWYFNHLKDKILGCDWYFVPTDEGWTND
# measurement description: BLI
Recorded koff for the following binders
Report only the number, with the unit s⁻¹ understood.

// below: answered binders
TT-Ab9 (antibody, V domains shown, IgG1) VH: EVQLVESGGSLVQPGGSLRLSCVGTGFTFNTYWMSWVRQAPGKGLEWVANIKQDGREKHYVDSVMGRFTVSRDNAMNALYLQVNSLRVEDTAVYYCARGMTAWSLGGYQYDYWGQGTQVTVSS VL: DIQMTQSPSSLSASVGDTVTITCRASQGIRSDLGWYQQRPGKAPKLLVYTASTLQTGVPSRFSGSGFGTDFTLTISSLQPEDFATYYCLQNYNYPRTFGQGTKVEIK ... 0.000919
TT-Ab12 (antibody, V domains shown, IgG1) VH: QVQLQESGPGLVKPSETLSLTCNVSGASISRYYWAWIRQPPGKGLEWIGYIYDSGTTTYNTSLKSRVTISRDTSKNQFSLNMMSVTAADTAVYYCARARYYYDSTGYFYGWLDPWGQGRLVTVSF VL: DIQMTQSPSTLSASVGDRVTITCRASQSINIWLAWYQQRPGKAPDLLIYKASTLQSGVPSRFSGSGSGTEFTLTISSVQPDDFATYYCQQYKSYSCSFGQGTKVEIN ... 0.000307

Now for a further binder.
I have this binder here, TT-Ab3 (antibody, V domains shown, IgG1) VH: EVQLVQSGAEVKKPGSSVKVSCKVSGGAFNSYAISWVRQAPGQGLEWMGGIIPILRTANYTEKFQGRVTINADKSTNTAYMELSKLRSEDTAVYYCARVWGTTVTKGPSQIKYYYYGMDVWGQGTTVTVSS VL: DIQMTQSPSSLSASVGDRVTISCRASQSISNYLNWYHQKPGKAPKLLIYAASSLQSGVPSRFSGSGSGTDFTLTISSLQPEDFATYYCQQSYSTPLTFGGGTKVEIK , and I need its recorded koff.
0.00013

Where do the numbers come from? From paper PMC5551578.
